tested on: S. aureus; test: Expanded panel broth microdilution MIC/MBC; details: Staphylococcus aureus, MRSA, S. aureus MMX 7900, MRSA
Overview of reported MIC across a group of compounds:
Readout: MIC (µg/mL)

CCCCCCCCCCNC(=O)CNC1(C)CC(OC2C(Oc3c4cc5cc3Oc3ccc(cc3Cl)C(O)C3NC(=O)C(NC(=O)C5NC(=O)C(CC(N)=O)NC(=O)C(NC(=O)C(CC(C)C)NC)C(O)c5ccc(c(Cl)c5)O4)c4ccc(O)c(c4)-c4c(O)cc(O)cc4C(C(=O)O)NC3=O)OC(CO)C(O)C2O)OC(C)C1O (stereo not shown) [RV94]
0.015
CCCCCCCCCCNCCN[C@@]1(C)C[C@H](O[C@H]2[C@H](Oc3c4cc5cc3Oc3ccc(cc3Cl)[C@@H](O)[C@@H](NC(=O)[C@@H](CC(C)C)NC)C(=O)N[C@@H](CC(N)=O)C(=O)N[C@H]5C(=O)N[C@H]3C(=O)N[C@H](C(=O)N[C@H](C(=O)O)c5cc(O)c(CNCP(=O)(O)O)c(O)c5-c5cc3ccc5O)[C@H](O)c3ccc(c(Cl)c3)O4)O[C@H](CO)[C@@H](O)[C@@H]2O)O[C@@H](C)[C@H]1O [Telavancin, telavancin]
0.06
CN[C@H](CC(C)C)C(=O)N[C@H]1C(=O)N[C@@H](CC(N)=O)C(=O)N[C@H]2C(=O)N[C@H]3C(=O)N[C@H](C(=O)N[C@H](C(=O)O)c4cc(O)cc(O)c4-c4cc3ccc4O)[C@H](O)c3ccc(c(Cl)c3)Oc3cc2cc(c3O[C@@H]2O[C@H](CO)[C@@H](O)[C@H](O)[C@H]2O[C@H]2C[C@](C)(N)[C@H](O)[C@H](C)O2)Oc2ccc(cc2Cl)[C@H]1O [Vancomycin, vancomycin]
0.5
CCCCCCCCCCNCCN[C@@]1(C)C[C@H](O[C@H]2[C@H](Oc3c4cc5cc3Oc3ccc(cc3Cl)[C@@H](O)[C@@H](NC(=O)[C@@H](CC(C)C)NC)C(=O)N[C@@H](CC(N)=O)C(=O)N[C@H]5C(=O)N[C@H]3C(=O)N[C@H](C(=O)N[C@H](C(=O)O)c5cc(O)cc(O)c5-c5cc3ccc5O)[C@H](O)c3ccc(c(Cl)c3)O4)O[C@H](CO)[C@@H](O)[C@@H]2O)O[C@@H](C)[C@H]1O [RV40, N-decylaminoethylvancomycin]
0.008
